Listing: log10 solubility kinetic at 2 h of selected compounds
PROTOCOL_TEXT: Determination of kinetic solubility (pH 7.4)
Format: physicochemical
MEASUREMENT_CONDITIONS: phosphate buffer, pH 7.4, aqueous buffer, kinetic from dmso stock, 50 mM phosphate buffer pH 7.4, read-out: Ksol, pH 7.4
PARAMETER: log10 solubility kinetic at 2 h (log10 of the value in µg/mL)

molecular_string=N#CC[C@H]1CN(c2nc(OC[C@@]34CCCN3C[C@H](F)C4)nc3c(F)c(-c4cccc5ccc(F)c(Cl)c45)ncc23)CCN1C(=O)/C=C/CN1CCOCC1 observed_value=2.05
molecular_string=C[C@H]1CN(C/C=C/C(=O)N2CCN(c3nc(OC[C@@]45CCCN4C[C@H](F)C5)nc4c(F)c(-c5cccc6ccc(F)c(F)c56)ncc34)C[C@@H]2CC#N)C[C@H](C)O1 observed_value=1.69
molecular_string=CCc1c(F)ccc2cccc(-c3ncc4c(N5CCN(C(=O)/C=C/CN6CCOCC6)[C@@H](CC#N)C5)nc(OC[C@@]56CCCN5C[C@H](F)C6)nc4c3F)c12 observed_value=2.01
molecular_string=C#Cc1c(F)ccc2cccc(-c3ncc4c(N5CCN(C(=O)/C=C/CN6[C@@H]7CC[C@H]6COC7)[C@@H](CC#N)C5)nc(OC[C@@]56CCCN5C[C@H](F)C6)nc4c3F)c12 observed_value=2.12
molecular_string=N#CC[C@H]1CN(c2nc(OC[C@@]34CCCN3C[C@H](F)C4)nc3c2CCN(c2cccc4cccc(Cl)c24)C3)CCN1C(=O)/C=C/c1nc(C2COC2)no1 observed_value=-2.00
molecular_string=COCCN(C)C/C=C/C(=O)N1CCN(c2nc(OC[C@@]34CCCN3C[C@H](F)C4)nc3c(F)c(-c4cccc5cccc(Cl)c45)ncc23)C[C@@H]1CC#N observed_value=2.02
molecular_string=Cc1nccc(/C=C/C(=O)N2CCN(c3nc(OC[C@@]45CCCN4C[C@H](F)C5)nc4c(F)c(-c5nc(N)cc6cccc(Cl)c56)ncc34)C[C@@H]2CC#N)n1 observed_value=1.92

* * *

Quick list: log10 solubility kinetic at 2 h per entry.
PROTOCOL_TEXT: Determination of kinetic solubility (pH 7.4)
Format: physicochemical
MEASUREMENT_CONDITIONS: phosphate buffer, pH 7.4, aqueous buffer, kinetic from dmso stock, 50 mM phosphate buffer pH 7.4, read-out: Ksol, pH 7.4
PARAMETER: log10 solubility kinetic at 2 h (log10 of the value in µg/mL)

molecule=N#CC[C@H]1CN(c2nc(OCC34CCCN3CCC4)nc3c(F)c(-c4cccc5cccc(Cl)c45)ncc23)CCN1C(=O)/C=C/c1nc(C(F)F)no1 observed_value=2.01
molecule=N#CC[C@H]1CN(c2nc(OC[C@@]34CCCN3C[C@H](F)C4)nc3c(F)c(-c4cccc5ccc(F)c(F)c45)ncc23)CCN1C(=O)/C=C/CN1C[C@@H]2C[C@H]1CO2 observed_value=2.13
molecule=N#CC[C@H]1CN(c2nc(OCC34CCCN3CCC4)nc3c2CCN(c2cccc4cccc(Cl)c24)C3)CCN1C(=O)/C=C/CN1C[C@H]2COC[C@H]2C1 observed_value=2.17
molecule=N#CC[C@H]1CN(c2nc(OC[C@@]34CCCN3C[C@H](F)C4)nc3c(F)c(-c4cccc(Cl)c4C4CC4)ncc23)CCN1C(=O)/C=C/CN1CC2CCC(C1)O2 observed_value=1.75
molecule="CN1CCC1/C=C/C(=O)N1CCN(c2nc(OC[C@@]34CCCN3C[C@H](F)C4)nc3c(F)c(-c4cccc5ccc(F)c(Cl)c45)ncc23)C[C@@H]1CC#N (stereo partly shown)" observed_value=2.13
molecule=N#CC[C@H]1CN(c2nc(OC[C@@]34CCCN3C[C@H](F)C4)nc3c(F)c(-c4cccc(Cl)c4C(F)(F)F)ncc23)CCN1C(=O)/C=C/CN1C[C@@H]2C[C@H]1CO2 observed_value=1.99
molecule=N#CC[C@H]1CN(c2nc(OC[C@@]34CCCN3C[C@H](F)C4)nc3c(F)c(-c4cccc5cccc(Cl)c45)ncc23)CCN1C(=O)/C=C/c1nc([C@H]2C[C@@H]2F)no1 observed_value=-2.00
molecule=CC1(c2noc(/C=C/C(=O)N3CCN(c4nc(OCC56CCCN5CCC6)nc5c(F)c(-c6cccc7cccc(Cl)c67)ncc45)C[C@@H]3CC#N)n2)CC1 observed_value=0.67
molecule=N#CC[C@H]1CN(c2nc(OC[C@@]34CCCN3C[C@H](F)C4)nc3c(F)c(-c4cccc5cccc(Cl)c45)ncc23)CCN1C(=O)/C=C/CN1CC2CCC(C1)O2 observed_value=1.87
molecule=N#CC[C@H]1CN(c2nc(OC[C@@]34CCCN3C[C@H](F)C4)nc3c2CCN(c2cccc4cccc(Cl)c24)C3)CCN1C(=O)/C=C/CN1CCOCC1 observed_value=1.66

* * *

PROTOCOL_TEXT: Determination of logD (1-octanol / phosphate buffer pH 7.4)
Format: physicochemical
MEASUREMENT_CONDITIONS: 1-octanol/phosphate buffer, pH 7.4, pH 7.4, 1-octanol/phosphate buffer; read-out: Log D, pH 7.4
Record fulfilled whenever logD is at 3 or higher; record not fulfilled when lower.

molecular_string=N#CC[C@H]1CN(c2nc(OC[C@@]34CCCN3C[C@H](F)C4)nc3c(F)c(-c4cccc5ccc(F)c(Cl)c45)ncc23)CCN1C(=O)/C=C/CN1C[C@@H]2C[C@H]1CO2 cat="not fulfilled"
molecular_string=N#CC[C@H]1CN(c2nc(OCC34CCCN3CCC4)nc3c(F)c(-c4cccc5cccc(Cl)c45)ncc23)CCN1C(=O)/C=C/c1nc(C(F)F)no1 cat="not fulfilled"
molecular_string=Cc1nccc(/C=C/C(=O)N2CCN(c3nc(OC[C@@]45CCCN4C[C@H](F)C5)nc4c(F)c(-c5cccc6ccc(F)c(Cl)c56)ncc34)C[C@@H]2CC#N)n1 cat=fulfilled
molecular_string=N#CC[C@H]1CN(c2nc(OC[C@@]34CCCN3C[C@H](F)C4)nc3c(F)c(-c4cccc5ccc(F)c(F)c45)ncc23)CCN1C(=O)/C=C/CN1CC2CC(C1)O2 cat="not fulfilled"
molecular_string=N#CC[C@H]1CN(c2nc(OC[C@@]34CCCN3C[C@H](F)C4)nc3c(F)c(-c4cccc(Cl)c4C4CC4)ncc23)CCN1C(=O)/C=C/CN1CC2CCC(C1)O2 cat=fulfilled

* * *

TARGET_DESC: KRAS G12C (GMPPNP-loaded) and cRAF (Ras-binding domain) interaction (Homo sapiens (Human), UniProt P01116, C118S/C51S/C80L/G12C)
Sequence (P01116 other isoform, or with tags, fused parts or gaps G12C/C51S/C80L/C118S): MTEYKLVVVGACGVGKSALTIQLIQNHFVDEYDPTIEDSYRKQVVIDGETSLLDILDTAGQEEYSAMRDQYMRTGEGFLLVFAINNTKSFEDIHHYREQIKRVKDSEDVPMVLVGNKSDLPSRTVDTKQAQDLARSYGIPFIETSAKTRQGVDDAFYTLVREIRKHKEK
PROTOCOL_TEXT: Inhibition of KRAS G12C and cRAF binding (AlphaScreen)
MEASUREMENT_CONDITIONS: KRAS G12C loaded with GMPPNP, cRaf RBD, 2 hours preincubation; read-out: Raf-1 RBD K-Ras IC50
pIC50: −log10 of the molar value.
PARAMETER: pIC50

molecular_string=N#CC[C@H]1CN(c2nc(OCC34CCCN3CCC4)nc3c2CCN(c2cccc4cccc(Cl)c24)C3)CCN1C(=O)/C=C/CN1CC2COCC(C1)O2 observed_value="> 8.00"
molecular_string=CCc1nccc(/C=C/C(=O)N2CCN(c3nc(OC[C@@]45CCCN4C[C@H](F)C5)nc4c(F)c(-c5cccc6cccc(Cl)c56)ncc34)C[C@@H]2CC#N)n1 observed_value="> 8.00"
molecular_string=CN1CCN(C/C=C/C(=O)N2CCN(c3nc(OC[C@@]45CCCN4C[C@H](F)C5)nc4c(F)c(-c5cccc(Cl)c5C5CC5)ncc34)C[C@@H]2CC#N)CC1 observed_value="7.00 to 8.00"

* * *

TARGET_DESC: KRAS G12C (GMPPNP-loaded) and cRAF (Ras-binding domain) interaction (Homo sapiens (Human), UniProt P01116, C118S/C51S/C80L/G12C)
PROTOCOL_TEXT: Inhibition of KRAS G12C and cRAF binding (AlphaScreen)
MEASUREMENT_CONDITIONS: KRAS G12C loaded with GMPPNP, cRaf RBD, 2 hours preincubation; read-out: Raf-1 RBD K-Ras IC50
PARAMETER: IC50

molecular_string=Cc1cc(/C=C/C(=O)N2CCN(c3nc(OC[C@@]45CCCN4C[C@H](F)C5)nc4c(F)c(-c5cccc6c(C)c(F)ccc56)ncc34)C[C@@H]2CC#N)nc(C)n1 observed_value="0.1 to 0.5 µM"
molecular_string=Cc1nsc(/C=C/C(=O)N2CCN(c3nc(OC[C@@]45CCCN4C[C@H](F)C5)nc4c3C[C@H](C)[C@@H](c3nc(N)cc(C)c3C(F)(F)F)C4)C[C@@H]2CC#N)n1 observed_value="0.01 to 0.1 µM"
molecular_string=N#CC[C@H]1CN(c2nc(OC[C@@]34CCCN3C[C@H](F)C4)nc3c(F)c(-c4cccc5ccc(F)c(F)c45)ncc23)CCN1C(=O)/C=C/CN1[C@@H]2CC[C@H]1COC2 observed_value="< 0.01 µM"
molecular_string=C[C@@H]1CN(C/C=C/C(=O)N2CCN(c3nc(OC[C@@]45CCCN4C[C@H](F)C5)nc4c(F)c(-c5cccc(Cl)c5C(F)(F)F)ncc34)C[C@@H]2CC#N)C[C@H](C)O1 observed_value="0.01 to 0.1 µM"
molecular_string=CN1CC[C@@H]1/C=C/C(=O)N1CCN(c2nc(OC[C@@]34CCCN3C[C@H](F)C4)nc3c(F)c(-c4cccc(Cl)c4C4CC4)ncc23)C[C@@H]1CC#N observed_value="0.01 to 0.1 µM"
molecular_string=CO[C@H]1CCN(C/C=C/C(=O)N2CCN(c3nc(OC[C@@]45CCCN4C[C@H](F)C5)nc4c(F)c(-c5cccc(Cl)c5C5CC5)ncc34)C[C@@H]2CC#N)C1 observed_value="< 0.01 µM"
molecular_string=N#CC[C@H]1CN(c2nc(OCC34CCCN3CCC4)nc3c2CCN(c2cccc4cccc(Cl)c24)C3)CCN1C(=O)/C=C/CN1C[C@@H]2C[C@H]1CO2 observed_value="< 0.01 µM"

The measured values listed here are drawn from patent US20250129103A1.
